tested on: MOLM-13; assay: IncuCyte live cell imaging of cell viability, Red-labeled cell line; assay type: cell-based; conditions: Homo sapiens; Red-labeled MOLM-13; 96 hr; read-out: Inhibition of Cell Viability EC50
Value Kind: EC50 (nM)
The response must be a number in nM with no trailing unit.

Q. Consider the compound shown here: O=C1CCC(N2Cc3cc(CNC(=O)C(F)(F)c4ccc(Cl)cc4)ccc3C2=O)C(=O)N1 (stereo not shown) What is its recorded EC50?
A. 248

----------
system: AML-193; assay: IncuCyte live cell imaging of cell viability, Red-labeled cell line; format: cell-based; details: Homo sapiens; Red-labeled AML-193; 48 hr; read-out: Inhibition of Cell Viability EC50
Value Kind: EC50 (nM)
Your answer should be a plain number; it is taken to be in nM.

Q. Please state recorded EC50 (tested on AML-193) of O=C1CCC(N2Cc3cc(CNC(=O)C(F)(F)c4ccc(Cl)cc4)ccc3C2=O)C(=O)N1 (stereo not shown) [Compound 1]
A. 4
